For each entry below, report its viability, T/C value.
Test system: 616215-338-R-J1-PDC complex spheroid viability
TEST_PROTOCOL: Anticancer human tumor 616215-338-R-J1-PDC patient-derived colon adenocarcinoma cell line growth inhibition [POLQ]
SETUP_CONDITIONS: second compound 0.1 µM; first compound 10 µM; hits give low values
# unit: % | format: bare number

viability, T/C reported for this compound CNCc1ccc(-c2[nH]c3cc(F)cc4c3c2CCNC4=O)cc1 + Nc1ccc(C#CCN(C(=O)Cc2ncc(C(F)(F)F)cc2C(F)(F)F)c2ccc(F)cc2)nn1 : 25.8

viability, T/C reported for this compound CNCc1ccc(-c2[nH]c3cc(F)cc4c3c2CCNC4=O)cc1 + Cc1cccc(N(C)C(=O)C2C(O)CCN2c2nc(C)cc(C(F)(F)F)c2C#N)c1 : 73.8

viability, T/C reported for this compound O=C(c1cc(Cc2n[nH]c(=O)c3ccccc23)ccc1F)N1CCN(C(=O)C2CC2)CC1 + COC1C(OC(N)=O)C(O)C(Oc2ccc3c(O)c(NC(=O)c4ccc(O)c(CC=C(C)C)c4)c(=O)oc3c2C)OC1(C)C : 85.7

viability, T/C reported for this compound COc1cccc2c1C(=O)c1c(O)c3c(c(O)c1C2=O)CC(O)(C(=O)CO)CC3OC1CC(N)C(O)C(C)O1 (stereo not given) + COC1C(OC(N)=O)C(O)C(Oc2ccc3c(O)c(NC(=O)c4ccc(O)c(CC=C(C)C)c4)c(=O)oc3c2C)OC1(C)C : 1.74

viability, T/C reported for this compound COc1cc(C2c3cc4c(cc3C(OC3OC5COC(C)OC5C(O)C3O)C3COC(=O)C23)OCO4)cc(OC)c1O (stereo not given) + COC1C(OC(N)=O)C(O)C(Oc2ccc3c(O)c(NC(=O)c4ccc(O)c(CC=C(C)C)c4)c(=O)oc3c2C)OC1(C)C : 59.8

----------
Tested on: 616215-338-R-J1-PDC complex spheroid viability
TEST_PROTOCOL: Anticancer human tumor 616215-338-R-J1-PDC cell line growth inhibition [POLQ];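 also: spheroids exposed to compounds for one week before readout; percent viability relative to DMSO vehicle wells taken as 100%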
SETUP_CONDITIONS: second compound 1 µM; first compound 1 µM; hits give low values
For each entry below, report its viability, T/C value.
# unit: % | format: bare number

Observed viability, T/C on 616215-338-R-J1-PDC complex spheroid viability, entry CCc1cc2c(N3CCc4c(cc(Cn5ccnc5)cc4-c4cn(C)nc4C(F)(F)F)C3=O)cc(C)nc2c(OC)n1 + COC1C(OC(N)=O)C(O)C(Oc2ccc3c(O)c(NC(=O)c4ccc(O)c(CC=C(C)C)c4)c(=O)oc3c2C)OC1(C)C , equals 85.1

Observed viability, T/C on 616215-338-R-J1-PDC complex spheroid viability, entry CC1COCCN1c1cc(C2(S(C)(=N)=O)CC2)nc(-c2ccnc3[nH]ccc23)n1 (stereo not given) + Cc1cccc(N(C)C(=O)C2C(O)CCN2c2nc(C)cc(C(F)(F)F)c2C#N)c1 , equals 101

Observed viability, T/C on 616215-338-R-J1-PDC complex spheroid viability, entry COc1ccc([C@@H](O)c2cc(-c3ncnc4cc(N5CCOCC5)ccc34)c(F)cc2Cl)nn1 + Nc1ccc(C#CCN(C(=O)Cc2ncc(C(F)(F)F)cc2C(F)(F)F)c2ccc(F)cc2)nn1 , equals 87.2

Observed viability, T/C on 616215-338-R-J1-PDC complex spheroid viability, entry CC1COCCN1c1cc(-c2ccnn2C)c2ccnc(-c3ccn[nH]3)c2n1 (stereo not given) + COC1C(OC(N)=O)C(O)C(Oc2ccc3c(O)c(NC(=O)c4ccc(O)c(CC=C(C)C)c4)c(=O)oc3c2C)OC1(C)C , equals 46.1

Observed viability, T/C on 616215-338-R-J1-PDC complex spheroid viability, entry COc1cccc(OCCCN)c1-c1cc(Nc2cnc(C#N)cn2)n[nH]1 + COC1C(OC(N)=O)C(O)C(Oc2ccc3c(O)c(NC(=O)c4ccc(O)c(CC=C(C)C)c4)c(=O)oc3c2C)OC1(C)C , equals 54.2
